Tested on: Staphylococcus aureus
Assay Explanation: Bactericidal activity against Staphylococcus aureus isolate 1 with AMC-AMP-CIP-ERY-GEN-OXA-RIF resistance phenotype assessed as concentration required for >= 3 log10 CFU/ml reduction in viable bacteria in 20% heat-inactivated human serum after 1.5 hrs by liquid microdilution assay
Format: functional
Listed here: items and their measured Activity.
Express the result in µM but write the number alone.

substance=H-GIFSKLAGKKLKNLLISG-NH2 result_unit=µM meas_value=64

INPUT: Using the record for H-FFPVIGRILNGIL-NH2 [TEMPORIN G] , report its Activity.
OUTPUT: 96

INPUT: Using the record for H-IIGPVLGLVGSALGGLLKKI-NH2 [BOMBININ H2] , report its Activity.
OUTPUT: 64

INPUT: Using the record for H-FLPLIGRVLSGIL-NH2 [TEMPORIN A] , report its Activity.
OUTPUT: 48

INPUT: Using the record for H-LLPIVGNLLKSLL-NH2 , report its Activity.
OUTPUT: 96
